EXPERIMENTAL_DETAILS: In vitro stability in CD-1 mouse plasma at 37° C. (enantiomerization, D/H exchange, degradation)
Format: in vitro ADME
STATED_CONDITIONS: CD-1, mouse, plasma, Calculated half-life t1/2, enantiomerization +−
METRIC_NAME: half-life (min)
Please respond with the number in min and leave the unit unwritten.

Reported half-life for Cc1nc2cccc(N)c2c(=O)n1C1CCC(=O)NC1=O (single isomer, unassigned; (-)) [h−, reference compound] : what is it? 576

* * *

EXPERIMENTAL_DETAILS: In vitro stability in human plasma at 37° C. (enantiomerization, D/H exchange, degradation)
Format: in vitro ADME
STATED_CONDITIONS: human, plasma, Calculated half-life t1/2, enantiomerization −+
METRIC_NAME: half-life (h)
Please respond with the number in h and leave the unit unwritten.

Reported half-life for Cc1nc2cccc(N)c2c(=O)n1C1CCC(=O)NC1=O (single isomer, unassigned; (+)) [h+, reference compound] : what is it? 3.2
